tested on: DeltatarO mutant; assay: S. aureus survival, RN4220 and DeltatarO strains – OD600, teichoic acid synthesis inhibitors, primary screen (AID 463173); details: S. aureus RN4220 wild type/DeltatarO growth, OD600, 18 h, screened at 18.75 µg/mL (by protocol)
About 4,300 (8.3%) of roughly 52,000 compounds were called active. No stated cut-off is given here; in the data, active means survival mostly below about 52% (no sharp cut-off); inactive means mostly above about 56%. This excerpt belongs to a sample that is enriched for actives.
Mark one answer only. Choices: active, inactive

Consider the following illustrative entries.
- MOLECULE: "Cc1ccc(Cl)cc1NC(=O)Nc1cccc(OCc2cc(=O)n3ccccc3n2)c1"
  CATEGORY_LABEL: "inactive"
- MOLECULE: "CCOc1ccc(N(C(C)C(=O)NCCSc2ccc(C)cc2)S(C)(=O)=O)cc1 (configuration not stated)"
  CATEGORY_LABEL: "inactive"
- MOLECULE: "COc1ccc(OC)c(NC(=O)CCn2cccn2)c1"
  CATEGORY_LABEL: "active"
- MOLECULE: "COc1ccc(-n2nc(C(=O)Nc3ccc(C)cn3)c3c4ccccc4n(C)c3c2=O)cc1"
  CATEGORY_LABEL: "inactive"
- MOLECULE: "COc1cc(OC)c(NC(=O)CCn2cccn2)cc1Cl"
  CATEGORY_LABEL: "inactive"
- MOLECULE: "CCc1ccccc1NC(=O)CN1CCCN(Cc2cc(C)ccc2C)S1(=O)=O"
  CATEGORY_LABEL: "inactive"

Write down the call the test reported for this molecule. Item: COC(=O)c1cc2sc(C)cc2n1Cc1ccccc1 inactive

Now the same for FC(F)(F)c1nnc2c3ccccc3nc(-c3ccccc3)n12 active

Now the same for Cc1ccc2nc(COc3ccccc3NC(=O)c3ccccc3F)cc(=O)n2c1 inactive

* * *

system: DeltatarO mutant; assay: S. aureus survival, RN4220 and DeltatarO strains – OD600, teichoic acid synthesis inhibitors, primary screen (AID 463173); conditions: S. aureus RN4220 wild type/DeltatarO growth, OD600, 18 h, active compounds read low, screened at 18.75 µg/mL (by protocol)
About 4,300 (8.3%) of roughly 52,000 compounds were called active. Many of the other results were omitted from the sample, so actives are more common in it than they were.
Lab note - cut at 80% for survival: t if strictly below, f if not.

Consider the following illustrative entries.
- COMPOUND: "COc1cccc(CNc2ncnc3onc(C)c23)c1"
  CATEGORY_LABEL: "f"
- COMPOUND: "COC(=O)c1ccc(NS(=O)(=O)c2ccc3[nH]c4c(c3c2)CCCCC4)cc1"
  CATEGORY_LABEL: "f"
- COMPOUND: "COc1ccc(S(=O)(=O)Nc2ccc3oc4c(c3c2)C(=O)CC(C)(C)C4)cc1"
  CATEGORY_LABEL: "f"
- COMPOUND: "CC(NC(=O)c1cc2ccccn2n1)c1ccccc1 (stereo not drawn)"
  CATEGORY_LABEL: "t"

Dear reviewer, please state whether CCOC(=O)c1ccc(CN(Cc2ccc(C)cc2)S(=O)(=O)c2ccc(NC(C)=O)cc2)cc1 has survival strictly beneath 80%. t

Now the same for COc1ccc(OC)c(CNc2ncnc3onc(C)c23)c1 f

Now the same for CC(C)(C)C1CCc2oc3ccc(NS(=O)(=O)c4ccc(C(=O)O)cc4)cc3c2C1 (stereo not drawn) t

Now the same for CCOC(=O)c1ccc(NC(=O)CN(Cc2ccc(C)cc2)S(=O)(=O)c2ccc(C)cc2)cc1 t

Now the same for Cc1cccc(C2CC(=O)Nc3cc4c(cc32)OCO4)c1 (stereo not drawn) t

Now the same for CCOc1ccc(C(=O)Nc2cc(-c3nc4cc(OC)ccc4o3)ccc2C)cc1[N+](=O)[O-] t

Now the same for CCOc1ccc(CNC(=O)c2nn(-c3ccc(OC)cc3)c(=O)c3c2c2ccccc2n3C)cc1 f
